- measurement_target: Angiotensin II receptor (Rattus norvegicus) (UniProt P29089+P25095+P35351)
- assay_name: Percent inhibition of the Angiotensin-II (0.1ug/kg, iv) induced pressor response after 3 hours of administration (1 mg/kg po) in rats
- Type: functional, organism-based
Entries and their inhibition
Number in %, nothing else.

CCNc1nc2cccc(C(=O)O)c2n1Cc1ccc(-c2ccccc2-c2nn[nH]n2)cc1 : 81
CCCCNc1nc2cccc(C(=O)O)c2n1Cc1ccc(-c2ccccc2-c2nn[nH]n2)cc1 : 38
COC(=O)c1cccc2nc(OC)n(Cc3ccc(-c4ccccc4-c4nn[nH]n4)cc3)c12 : 94
O=C(O)c1cccc2nc(OCC(F)(F)F)n(Cc3ccc(-c4ccccc4-c4nn[nH]n4)cc3)c12 : 28
CNCc1nc2cccc(C(=O)O)c2n1Cc1ccc(-c2ccccc2-c2nn[nH]n2)cc1 : 42

Input line: So what's the measured inhibition for this one? CCCCc1nc(Cl)c(CO)n1Cc1ccc(-c2ccccc2-c2nnn[nH]2)cc1
Output line: 21

Input line: So what's the measured inhibition for this one? CSc1nc2cccc(C(=O)O)c2n1Cc1ccc(-c2ccccc2-c2nn[nH]n2)cc1
Output line: 100

Input line: So what's the measured inhibition for this one? CCC(C)c1nc2cccc(C(=O)O)c2n1Cc1ccc(-c2ccccc2-c2nn[nH]n2)cc1 (stereo unspecified)
Output line: 6

Input line: So what's the measured inhibition for this one? CNc1nc2cccc(C(=O)O)c2n1Cc1ccc(-c2ccccc2-c2nn[nH]n2)cc1
Output line: 28

Input line: So what's the measured inhibition for this one? CCOc1nc2cccc(C(=O)OC)c2n1Cc1ccc(-c2ccccc2-c2nn[nH]n2)cc1
Output line: 100

Input line: So what's the measured inhibition for this one? CCCCc1nc2cccc(C(=O)O)c2n1Cc1ccc(-c2ccccc2-c2nn[nH]n2)cc1
Output line: 49

----------
- measurement_target: Angiotensin II receptor (Rattus norvegicus) (UniProt P29089+P25095+P35351)
- assay_name: Percent inhibition of the Angiotensin-II (0.1micro g/kg, iv) induced pressor response after 7 hours of administration (3 mg/kg po) in rats
- Assay type: functional, organism-based
property_label: inhibition
Provide a numeric answer, followed by its unit.

Reference set, count: 3
CCc1nc2cccc(C(=O)O)c2n1Cc1ccc(-c2ccccc2-c2nn[nH]n2)cc1 : 95%
CSc1nc2cccc(C(=O)O)c2n1Cc1ccc(-c2ccccc2-c2nn[nH]n2)cc1 : 95%
O=C(O)c1cccc2nc(C3CC3)n(Cc3ccc(-c4ccccc4-c4nn[nH]n4)cc3)c12 : 96%

Input line: So what's the measured inhibition for this one? CCCSc1nc2cccc(C(=O)O)c2n1Cc1ccc(-c2ccccc2-c2nn[nH]n2)cc1
Output line: 76%

Input line: So what's the measured inhibition for this one? CCOc1nc2cccc(C(=O)O)c2n1Cc1ccc(-c2ccccc2-c2nnn[nH]2)cc1
Output line: 100%

Input line: So what's the measured inhibition for this one? CCCCNc1nc2cccc(C(=O)O)c2n1Cc1ccc(-c2ccccc2-c2nn[nH]n2)cc1
Output line: 61%

Input line: So what's the measured inhibition for this one? CCC(C)c1nc2cccc(C(=O)O)c2n1Cc1ccc(-c2ccccc2-c2nn[nH]n2)cc1 (centres undefined)
Output line: 18%

Input line: So what's the measured inhibition for this one? CCCCc1nc(Cl)c(CO)n1Cc1ccc(-c2ccccc2-c2nnn[nH]2)cc1
Output line: 74%

Input line: So what's the measured inhibition for this one? CC(C)c1nc2cccc(C(=O)O)c2n1Cc1ccc(-c2ccccc2-c2nn[nH]n2)cc1
Output line: 38%

----------
- measurement_target: Angiotensin II receptor (Rattus norvegicus) (UniProt P29089+P25095+P35351)
- assay_name: Percent inhibition of the Angiotensin-II (0.1ug/kg, iv) induced pressor response after 3 hours of administration (1 mg/kg po) in rats
- Format: functional, organism-based
Could you label it Met if measured inhibition is 80% or higher, and Not met otherwise?

Some solved entries appear below for comparison.
CSCc1nc2cccc(C(=O)O)c2n1Cc1ccc(-c2ccccc2-c2nn[nH]n2)cc1 : Met
CCCSc1nc2cccc(C(=O)O)c2n1Cc1ccc(-c2ccccc2-c2nn[nH]n2)cc1 : Met
COc1nc2cccc(C(=O)O)c2n1Cc1ccc(-c2ccccc2-c2nn[nH]n2)cc1 : Met

Input line: Please tell me: is the compound CCCc1nc2cccc(C(=O)O)c2n1Cc1ccc(-c2ccccc2-c2nn[nH]n2)cc1 at or over 80% in terms of inhibition?
Output line: Met

Input line: Please tell me: is the compound COC(=O)c1cccc2nc(OCC(F)(F)F)n(Cc3ccc(-c4ccccc4-c4nn[nH]n4)cc3)c12 at or over 80% in terms of inhibition?
Output line: Not met

----------
- measurement_target: Angiotensin II receptor (Rattus norvegicus) (UniProt P29089+P25095+P35351)
- assay_name: Percent inhibition of the Angiotensin-II (0.1micro g/kg, iv) induced pressor response after 7 hours of administration (3 mg/kg po) in rats
- Format: functional, organism-based
property_label: inhibition
Provide a numeric answer, followed by its unit.

Reference set, count: 2
CCCc1nc2cccc(C(=O)O)c2n1Cc1ccc(-c2ccccc2-c2nn[nH]n2)cc1 : 91%
CCOc1nc2cccc(C(=O)O)c2n1Cc1ccc(-c2ccccc2C(=O)O)cc1 : 49%

Input line: So what's the measured inhibition for this one? CCCOc1nc2cccc(C(=O)O)c2n1Cc1ccc(-c2ccccc2-c2nn[nH]n2)cc1
Output line: 100%

Input line: So what's the measured inhibition for this one? CCOc1nc2cccc(C(=O)OC)c2n1Cc1ccc(-c2ccccc2-c2nn[nH]n2)cc1
Output line: 100%

Input line: So what's the measured inhibition for this one? CCSc1nc2cccc(C(=O)O)c2n1Cc1ccc(-c2ccccc2-c2nn[nH]n2)cc1
Output line: 97%

Input line: So what's the measured inhibition for this one? CC(C)Cc1nc2cccc(C(=O)O)c2n1Cc1ccc(-c2ccccc2-c2nn[nH]n2)cc1
Output line: 29%

Input line: So what's the measured inhibition for this one? CCNc1nc2cccc(C(=O)O)c2n1Cc1ccc(-c2ccccc2-c2nn[nH]n2)cc1
Output line: 100%

Input line: So what's the measured inhibition for this one? CCCNc1nc2cccc(C(=O)O)c2n1Cc1ccc(-c2ccccc2-c2nn[nH]n2)cc1
Output line: 72%

----------
Entries below carry reported pIC50 on Type-1 angiotensin II receptor (Bos taurus).
Interpret pIC50 as the negative base-10 log of the concentration measured in mol/L.

Reference set, count: 4
C=CCOc1nc2cccc(C(=O)OC)c2n1Cc1ccc(-c2ccccc2-c2nnn[nH]2)cc1 : 6.07
CCCCNc1nc2cccc(C(=O)O)c2n1Cc1ccc(-c2ccccc2-c2nnn[nH]2)cc1 : 6.19
CCCNc1nc2cccc(C(=O)O)c2n1Cc1ccc(-c2ccccc2-c2nnn[nH]2)cc1 : 7.41
CCCc1nc2cccc(C(=O)O)c2n1Cc1ccc(-c2ccccc2-c2nn[nH]n2)cc1 : 6.77

Input line: Form entry - test system: Type-1 angiotensin II receptor (Bos taurus); read-out: pIC50; compound: CCCOc1nc2cccc(C(=O)O)c2n1Cc1ccc(-c2ccccc2-c2nnn[nH]2)cc1
Output line: 6.72

Input line: Form entry - test system: Type-1 angiotensin II receptor (Bos taurus); read-out: pIC50; compound: CSCCc1nc2cccc(C(=O)O)c2n1Cc1ccc(-c2ccccc2-c2nn[nH]n2)cc1
Output line: 6.21

----------
- measurement_target: Type-1 angiotensin II receptor (Bos taurus)
- Sequence (P25104 whole entry): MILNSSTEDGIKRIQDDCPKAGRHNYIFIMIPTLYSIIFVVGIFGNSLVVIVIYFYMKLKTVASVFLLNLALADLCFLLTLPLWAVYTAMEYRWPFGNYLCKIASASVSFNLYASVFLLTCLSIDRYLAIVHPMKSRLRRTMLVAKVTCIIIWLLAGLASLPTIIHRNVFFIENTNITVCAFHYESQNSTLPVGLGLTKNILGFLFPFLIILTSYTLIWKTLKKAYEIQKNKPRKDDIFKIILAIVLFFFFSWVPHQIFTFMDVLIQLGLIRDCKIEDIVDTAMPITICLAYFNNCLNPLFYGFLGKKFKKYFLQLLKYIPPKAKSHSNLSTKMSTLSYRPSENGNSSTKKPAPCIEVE
// assign Condition met if IC50 falls strictly below 200 nM, else Condition not met (ties count as Condition not met)

Some solved entries appear below for comparison.
COCCc1nc2cccc(C(=O)O)c2n1Cc1ccc(-c2ccccc2-c2nn[nH]n2)cc1 : Condition not met
CCCCc1nc2cccc(C(=O)O)c2n1Cc1ccc(-c2ccccc2-c2nnn[nH]2)cc1 : Condition not met

Input line: Consider the molecule CC(C)Cc1nc2cccc(C(=O)O)c2n1Cc1ccc(-c2ccccc2-c2nnn[nH]2)cc1 . Is its IC50 strictly less than 200 nM?
Output line: Condition not met

Input line: Consider the molecule CCSc1nc2cccc(C(=O)OC)c2n1Cc1ccc(-c2ccccc2-c2nn[nH]n2)cc1 . Is its IC50 strictly less than 200 nM?
Output line: Condition not met

Input line: Consider the molecule COc1nc2cccc(C(=O)O)c2n1Cc1ccc(-c2ccccc2-c2nnn[nH]2)cc1 . Is its IC50 strictly less than 200 nM?
Output line: Condition met

Input line: Consider the molecule CCOc1nc2cccc(C(=O)OC)c2n1Cc1ccc(-c2ccccc2-c2nnn[nH]2)cc1 . Is its IC50 strictly less than 200 nM?
Output line: Condition met

The origin of these recorded values is ChEMBL document CHEMBL1126750.
